# target.or.system: T1, CD70 on cells (CHO-CD70, JVM-3, U266, Raji, THP-1, T cells) (human, UniProt P32970 1-193)
# T1 construct: whole, on cells; also called cell-surface CD70
# T1 sequence (looked up): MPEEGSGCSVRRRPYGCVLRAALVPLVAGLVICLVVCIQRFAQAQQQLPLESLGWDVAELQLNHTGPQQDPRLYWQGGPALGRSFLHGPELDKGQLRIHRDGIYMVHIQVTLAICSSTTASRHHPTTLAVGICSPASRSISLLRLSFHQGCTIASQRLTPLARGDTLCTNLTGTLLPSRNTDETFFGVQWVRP
# assay: 1.25 µg/mL scFv on CHO-CD70 cells
The following binders are shown together with reported cell binding values.

Look over these answered cases.
- 57-TC7-VII-A03 (scFv, His-tagged) scFv: QVQLQQSGPGLVKASETLSLTCAVSGHSISSSNYWGWIRQPPGKGLEWIGSIYHSGTTYYNPSLKSRVTMSVDTSKNQFSLKLSSVTAADTAVYYCARHGSGDLGYLEYWGQGTLVTVSSGGSGGSGGSGGSSYELTQSPSVSVAPGKTARITCGGNNIGSKSVHWYQQKPGQAPVLVIYYDSDRPSGIPERFSGSNSGNTATLTISRVEAGDEADYYCQVWDSSSDHPVFGGGTKVTVL: 163000
- 53-TC7-VI-B06 (scFv, His-tagged) scFv: EVQLLESGGGVVQPGRSLRLSCAASGFTFSSYGMHWVRQAPGKGLEWVAVISYDGSNKYYADSVKGRFTISRDNSKNTLYLQMNSLRAEDTAVYYCAKGELELTNWGQGTLVTVSSGGSGGSGGSGGSSYELTQPPSVSVAPGQTARITCGGNNIGSKSVHWYQQKSGQAPVLVVYDDTDRPSGTPERFSGSNSGNTATLTISGTQAMDEADYYCQAWDSSTAVFGTGTKVTVL: 12200

// next entry
Find the measured cell binding of 14-TC6-I-F03 (scFv, His-tagged) scFv: QVQLVQSGAEVKKPGASVKVSCKASGYTFTGYYMNWVRQAPGQGLEWMAWINPNTGDTNYAQKFQGRVTMTRDTSINTAYIELSRLTSDDTAVYYCARVGDYYDRSGYYRHDAFDIWGQGTMVTVSSGGSGGSGGSGGSSSELTQDPAVSVALGQTVRITCQGDSLRSYYASWYQQKPGQAPVLVIYGKNNRPSGIPDRFSGSNSGNTATLTISGTQAMDEADYYCQAWDSSTVFGGGTKVTVL and report it. 33400

Hey, just so you know, these numbers are from patent US20240252641A1.
